test system: S. mansoni newly transformed schistosomula; test: CellTiterGlo luminescent viability assay on schistosomula; conditions: read-out: CC50 of newly transformed schistosomula; 24 h, 0.019-50 μM, four parameter fit; values of two independent experiments
Measure name: CC50 (µM)
Use µM as the unit, but write only the number.

Request: Give S. mansoni newly transformed schistosomula CC50 for C1CCC(C(CC2CCCCN2)C2CCCCC2)CC1 (stereo not shown) [Perhexiline, 2-(2,2-dicyclohexylethyl)piperidine]
Result: 12.4
